Target: A1 adenosine receptor (Mesocricetus auratus, UniProt A0A1U8BVR4)
Construct: endogenous in cells; host or cells: DDT1 (DDT1 MF-2) hamster vas deferens smooth muscle cells
Sequence (A0A1U8BVR4 1-326): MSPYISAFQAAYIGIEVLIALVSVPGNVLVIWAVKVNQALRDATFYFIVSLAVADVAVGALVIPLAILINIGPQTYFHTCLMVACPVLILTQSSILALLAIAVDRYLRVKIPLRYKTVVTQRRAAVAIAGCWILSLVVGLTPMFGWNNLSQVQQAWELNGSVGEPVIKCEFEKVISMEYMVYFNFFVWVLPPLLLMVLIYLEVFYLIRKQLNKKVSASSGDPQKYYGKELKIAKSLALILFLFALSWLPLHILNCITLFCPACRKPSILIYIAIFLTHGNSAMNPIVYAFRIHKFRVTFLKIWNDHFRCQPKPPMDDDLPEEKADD
Experiment: [35S]GTPγS binding assay, A1-agonist stimulated
Type: biochemical, hamster
Conditions: […], agonist stimulated [35S]GTPγS binding, CPA = 100%
The reader will find reported Emax values listed item by item below.
Field format: number, assumed %, no unit text.

The compound listed as O=c1occn1CC1OC(n2cnc3c(N[C@@H]4CCOC4)ncnc32)C(O)C1O (some centres unmarked) has a reported Emax of 80

The compound listed as OC1C(COC(=S)NC2CC2)OC(n2cnc3c(N[C@@H]4CCOC4)ncnc32)C1O (some centres unmarked) has a reported Emax of 82

The compound listed as `CNC(=O)OC[C@H]1O[C@@H](n2cnc3c(N[C@@H]4CCOC4)nc(Cl)nc32)[C@H](O)[C@@H]1O` has a reported Emax of 77

The compound listed as CCCCNC(=S)OCC1OC(n2cnc3c(N[C@@H]4CCOC4)ncnc32)C(O)C1O (some centres unmarked) has a reported Emax of 70

The compound listed as `CCNC(=S)OC[C@H]1O[C@@H](n2cnc3c(N[C@@H]4CCOC4)ncnc32)[C@H](O)[C@@H]1O` has a reported Emax of 77

The compound listed as OC1C(COC(=S)NC2CCCC2OCc2ccccc2)OC(n2cnc3c(N[C@@H]4CCOC4)ncnc32)C1O (some centres unmarked) has a reported Emax of 67

The compound listed as O=C(NC1CCCC1)OCC1OC(n2cnc3c(NC4CCOC4)nc(Cl)nc32)C(O)C1O (centres unmarked) has a reported Emax of 50

Here's the next entry for you.
The compound listed as `CCCNC(=S)OC[C@H]1O[C@@H](n2cnc3c(N[C@@H]4CCOC4)ncnc32)[C@H](O)[C@@H]1O` has a reported Emax of 89

---

The reader will find reported pKi values listed item by item below.
molecular target: A1 receptor (Mesocricetus auratus, UniProt A0A1U8BVR4); construct: endogenous in cells; host or cells: DDT1 (DDT1 MF-2) hamster vas deferens smooth muscle cells; experiment: Competitive binding assay, DDT1 cell membranes, [3H]CCPA; set-up: species or system hamster; conditions: [3H]CCPA 2 nM, DDT1 cell membranes; read-out: Ki-DDT1 cell membrane
Reminder that pKi is minus the log10 of a molar concentration.

Recorded pKi, per entry:
The molecule listed as CCOC(=O)C1C2CCC(C2)C1NC(=O)OCC1OC(n2cnc3c(N[C@@H]4CCOC4)ncnc32)C(O)C1O (stereo partly shown) has a reported pKi of 5.82

The molecule listed as `O[C@@H]1[C@H](O)[C@@H](CSC(=S)NC2CCCC2)O[C@H]1n1cnc2c(N[C@@H]3CCOC3)ncnc21` has a reported pKi of 7.21

The molecule listed as CCCCNC(=O)OCC1OC(n2cnc3c(N[C@@H]4CCOC4)ncnc32)C(O)C1O (stereo partly shown) has a reported pKi of 5.79

***
The molecule listed as COC(=O)C1CCCC1NC(=O)OCC1OC(n2cnc3c(N[C@@H]4CCOC4)ncnc32)C(O)C1O (stereo partly shown) has a reported pKi of 5.46

---

biological target: A1 receptor (Mesocricetus auratus, UniProt A0A1U8BVR4); construct: endogenous in cells; host or cells: DDT1 (DDT1 MF-2) hamster vas deferens smooth muscle cells; assay: Competitive binding assay, DDT1 cell membranes, [3H]CCPA; set-up: species or system hamster; settings: [3H]CCPA 2 nM, in presence of Gpp(NH)p (low affinity form); read-out: Ki - DDT1 cell membrane In presence of Gpp (NH)p
The reader will find reported pKi values listed item by item below.
Reminder that pKi is minus the log10 of a molar concentration.

The molecule listed as `CCCNC(=S)OC[C@H]1O[C@@H](n2cnc3c(N[C@@H]4CCOC4)ncnc32)[C@H](O)[C@@H]1O` has a reported pKi of 6.84

The molecule listed as `CN(C)C(=S)OC[C@H]1O[C@@H](n2cnc3c(N[C@@H]4CCOC4)ncnc32)[C@H](O)[C@@H]1O` has a reported pKi of 5.68

The molecule listed as `O=C(NCc1ccccc1)OC[C@H]1O[C@@H](n2cnc3c(N[C@@H]4CCOC4)ncnc32)[C@H](O)[C@@H]1O` has a reported pKi of 6.32

The molecule listed as `O[C@@H]1[C@H](O)[C@@H](COC(=S)NC2CCCC2)O[C@H]1n1cnc2c(N[C@@H]3CCOC3)ncnc21` has a reported pKi of 7.06

The molecule listed as OC1C(COC(=S)N2CCCCC2)OC(n2cnc3c(N[C@@H]4CCOC4)ncnc32)C1O (stereo partly shown) has a reported pKi of 5.71

The molecule listed as O=C(NC1CCCC1)OCC1OC(n2cnc3c(N[C@@H]4CCOC4)ncnc32)C(O)C1O (stereo partly shown) has a reported pKi of 6.09

Here's the next entry for you.
The molecule listed as `O[C@@H]1[C@H](O)[C@@H](COC(=S)N2CCCC2)O[C@H]1n1cnc2c(N[C@@H]3CCOC3)ncnc21` has a reported pKi of 5.95
